Data provenance: the supplement of paper PMC11451515

# System: P12-Ichikawa
# Assay Summary: AUC of viability dose-response curve (% viability x log10 dose units); higher = less sensitive
# Experimental Setup: RPMI 5 mM glucose + 10% FBS; 48 h
Collected AUC of viability dose-response curve values appear next to each entry.

{"Compound": "O=c1c(-c2ccc(O)cc2)coc2cc(O[C@@H]3O[C@H](CO)[C@@H](O)[C@H](O)[C@H]3O)ccc12", "AUC of viability dose-response curve": 469}
{"Compound": "CN(C)CCOc1cc(-c2cn[nH]c2)ccc1NC(=O)C1COc2ccccc2O1 (stereo not given)", "AUC of viability dose-response curve": 455}
{"Compound": "CC[C@H](CC#N)OC(=O)N[C@@H](C)c1cccc(NC(=O)Nc2ccc(-c3cnco3)c(OC)c2)c1", "AUC of viability dose-response curve": 359}
{"Compound": "CCC1(C)CC(=O)NC1=O (stereo not given)", "AUC of viability dose-response curve": 459}
{"Compound": "C[C@@H]\\1COC(=N1)\\NC2=CC3=C(C=C2)N=CN=C3NC4=CC(=C(OCC5=NC=CS5)C=C4)Cl", "AUC of viability dose-response curve": 447}
{"Compound": "CC(NC1=CC=CC=C1)C\\2=C\\C(=C/N3C(=O)\\C=C(/N=C23)N4CCOCC4)C (stereo not given)", "AUC of viability dose-response curve": 456}
{"Compound": "C[C@H](NC(=O)/C(C#N)=C/c1cccc(Br)n1)c1ccccc1", "AUC of viability dose-response curve": 353}
{"Compound": "OC[C@H]1O[C@H](C[C@@H]1O)[N]2C=NC3=C2\\N=C/NC[C@H]3O", "AUC of viability dose-response curve": 457}
{"Compound": "COc1c(C)cnc(Cn2cnc3c(Cl)nc(N)nc32)c1C", "AUC of viability dose-response curve": 334}
{"Compound": "CN1[C@@H]2CC(OC(=O)[C@@H](CO)c3ccccc3)C[C@H]1[C@H]1O[C@H]12 (stereo not given in full)", "AUC of viability dose-response curve": 469}
{"Compound": "COC(=O)Nc1nc2cc(C(=O)c3cccs3)ccc2[nH]1", "AUC of viability dose-response curve": 206}
{"Compound": "CCCCCCCCCCCCCCCCCCCCCCO", "AUC of viability dose-response curve": 461}
{"Compound": "COc1cc2c(cc1-c1c(C)noc1C)ncc1[nH]c(=O)n([C@H](C)c3ccccn3)c12", "AUC of viability dose-response curve": 396}
{"Compound": "CC(C)C(C)/C=C/C(C)C1CCC2C3=CC=C4CC(O)CCC4(C)C3CCC21C (stereo not given)", "AUC of viability dose-response curve": 468}
{"Compound": "CCN(CC)CC#CCOC(=O)C(O)(c1ccccc1)C1CCCCC1 (stereo not given)", "AUC of viability dose-response curve": 475}
{"Compound": "CN(Cc1cnc2nc(N)nc(N)c2n1)c1ccc(C(=O)N[C@@H](CCC(=O)O)C(=O)O)cc1", "AUC of viability dose-response curve": 277}
{"Compound": "CN(CC#C)C/C1=C/C2=CC=CC=C2OC3=CC=CC=C13", "AUC of viability dose-response curve": 407}
{"Compound": "C/C=C/C[C@@H](C)C(=O)[C@H]1C(=O)N[C@@H](C(C)C)C(=O)N(C)CC(=O)N(C)[C@@H](CC(C)C)C(=O)N[C@@H](C(C)C)C(=O)N(C)[C@@H](CC(C)C)C(=O)N[C@@H](C)C(=O)N[C@H](C)C(=O)N(C)[C@@H](CC(C)C)C(=O)N(C)[C@@H](CC(C)C)C(=O)N(C)[C@@H](C(C)C)C(=O)N1C", "AUC of viability dose-response curve": 413}
{"Compound": "O=C(NOCC(O)CO)c1cc(Br)c(F)c(F)c1Nc1ccc(I)cc1F (stereo not given)", "AUC of viability dose-response curve": 333}
{"Compound": "N=C(CCSCc1csc(N=C(N)N)n1)N[S+](N)(=O)[O-]", "AUC of viability dose-response curve": 454}

###

# Tested on: P12-Ichikawa
# Assay Summary: AUC of viability dose-response curve (% viability x log10 dose units); higher = less sensitive
# Experimental Setup: RPMI 5 mM glucose + 10% dialyzed FBS; 48 h
Lab note: anything with AUC of viability dose-response curve below 400 is marked t; values at 400 or higher are marked f.

{"Smiles Input": "CCCCCOC(=O)NC\\1=N\\C(=O)N(\\C=C1F)[C@@H]2O[C@H](C)[C@@H](O)[C@H]2O", "Class": "f"}
{"Smiles Input": "CCCc1nc(C(C)(C)O)c(C(=O)O)n1Cc1ccc(-c2ccccc2-c2nn[nH]n2)cc1", "Class": "f"}
{"Smiles Input": "CCc1cc(Nc2nccc(-c3c(-c4ccc(OC)c(C(=O)Nc5c(F)cccc5F)c4)nc4ccccn34)n2)c(OC)cc1N1CCC(N2CCN([S+](C)(=O)[O-])CC2)CC1", "Class": "f"}
{"Smiles Input": "Cc1c(CCOc2ccc(C(=O)O)cc2)c2cc(Cl)ccc2n1C(c1ccccc1)c1ccccc1", "Class": "f"}
{"Smiles Input": "CC[C@H](CC#N)OC(=O)N[C@@H](C)c1cccc(NC(=O)Nc2ccc(-c3cnco3)c(OC)c2)c1", "Class": "t"}
{"Smiles Input": "C=CC(=O)Nc1cccc(Oc2nc(Nc3ccc(N4CCN(C)CC4)cc3)ncc2Cl)c1", "Class": "f"}

###

# Tested on: NOMO1
# Assay Summary: cell viability relative to DMSO control; higher = less cytotoxic
# Experimental Setup: HPLM + 10% dialyzed FBS; 48 h; 0.00702 µM
Overview of reported cell viability across a group of molecules:

{"Smiles Input": "FC(F)(F)c1ccc(/C=C/c2nc(COc3ccc(CCCCn4ccnn4)cc3)co2)cc1", "cell viability, %": 122}
{"Smiles Input": "NC1(Cc2ccc(Cl)cc2)CCN(c2ncnc3[nH]ccc23)CC1", "cell viability, %": 89.9}
{"Smiles Input": "C=CC(=O)Nc1cccc(Oc2nc(Nc3ccc(N4CCN(C)CC4)cc3)ncc2Cl)c1", "cell viability, %": 119}
{"Smiles Input": "C[C@@H](NC1=CC=CC=C1C(O)=O)C/2=C/C(=C\\N3C(=O)/C=C(\\N=C23)N4CCOCC4)C", "cell viability, %": 89.8}
{"Smiles Input": "Cc1cn2c(-c3cn[nH]c3)cnc2c(Nc2ccc(C(=O)N3CCNCC3)cc2F)n1", "cell viability, %": 114}
{"Smiles Input": "CN(C)c1ccc(O)c2c1C[C@H]1C[C@H]3[C@H](N(C)C)C(O)=C(C(N)=O)C(=O)[C@@]3(O)C(O)=C1C2=O", "cell viability, %": 105}
{"Smiles Input": "C[C@](O)(COc1ccc(C#N)cc1)C(=O)Nc1ccc(C#N)c(C(F)(F)F)c1", "cell viability, %": 81.2}
{"Smiles Input": "CCc1cncnc1N1CCN(Cc2nc3cc(C(F)(F)F)ccc3[nH]2)CC1", "cell viability, %": 114}
{"Smiles Input": "CCCCCOC(=O)NC\\1=N\\C(=O)N(\\C=C1F)[C@@H]2O[C@H](C)[C@@H](O)[C@H]2O", "cell viability, %": 97}
{"Smiles Input": "CCCCn1c(=O)n(Cc2ccccc2F)c(=O)c2nc(Cc3ccc(NC(C)=O)cc3)[nH]c21", "cell viability, %": 75.7}

###

# Tested on: P12-Ichikawa
# Assay Summary: cell viability relative to DMSO control; higher = less cytotoxic
# Experimental Setup: RPMI 5 mM glucose + 10% dialyzed FBS; 48 h; 46.1 µM
# strict inequality: cell viability < 90% yields satisfied, everything else yields not satisfied

{"Molecule": "C[C@]12C[C@H](O)[C@H]3[C@@H](CC\\C4=C\\C(=O)\\C=C/[C@]34C)[C@@H]1CC[C@]2(O)C(=O)CO", "Class": "satisfied"}
{"Molecule": "CCc1cncnc1N1CCN(Cc2nc3cc(C(F)(F)F)ccc3[nH]2)CC1", "Class": "satisfied"}
{"Molecule": "CN(C)c1ccc(O)c2c1C[C@H]1C[C@H]3[C@H](N(C)C)C(O)=C(C(N)=O)C(=O)[C@@]3(O)C(O)=C1C2=O", "Class": "not satisfied"}
{"Molecule": "O=C([O-])C(O)Cc1ccc(O)c(O)c1 (stereo unspecified)", "Class": "satisfied"}
{"Molecule": "O=NN(CCCl)C(=O)NC1CCCCC1", "Class": "not satisfied"}
{"Molecule": "CC/C(=C(/c1ccc(O)cc1)c1ccc(OCCNC)cc1)c1ccccc1", "Class": "satisfied"}
{"Molecule": "C\\C1=C\\C(=O)OC2=C1C=CC(=C2)O", "Class": "not satisfied"}
{"Molecule": "COc1cccc2cc(-c3nc(C4CCC(C(=O)O)CC4)n4ncnc(N)c34)[nH]c12 (stereo unspecified)", "Class": "satisfied"}
